protocol_conditions: buffer; pH 7.4; 200.0 µM
# log10(solubility kinetic) values compiled below
log10 solubility kinetic, µg/mL

These solved cases illustrate the format of a correct answer.
compound	observed_value
O=C(CNC(=O)c1ccco1)Nc1cccc(Cl)c1	1.28
O/N=C\c1cnc(N2CCN(c3ccccc3)CC2)s1	0.46
CC1(c2ccccc2)NC(=O)N(CC(=O)Nc2ccc3c(c2)CCC3)C1=O (centres undefined)	0.58
O=C(O)/C=C/C(=O)Nc1ccc(OC(F)(F)F)cc1	1.59
O=C(COC(=O)COc1ccc(Cl)cc1)NCc1ccc2c(c1)OCO2	0.36

## Input Consider the compound O=C1CN(C(=O)CNCc2ccccc2)c2ccccc2N1 and give its measured log10(solubility kinetic).
## Output 1.53

## Input And for O=c1cc(CSCc2ccc(Cl)cc2)[nH]c(=O)[nH]1 ?
## Output 1.62

## Input And for CC1CN(S(=O)(=O)c2ccc(C(=O)NC3CCCCC3)cc2)CC(C)O1 (centres undefined) ?
## Output 1.66

## Input And for O=C(CCCc1c[nH]c2ccccc12)NCc1ccccc1F ?
## Output 1.54

## Input And for CC(=O)c1cnc(-c2ccccn2)s1 ?
## Output 1.45

## Input And for CNC(=O)c1c(NC(=O)c2ccco2)sc2c1CCCC2 ?
## Output 0.43

## Input And for Cc1nc(N)ncc1-c1ccc2c(c1)OCO2 ?
## Output 1.03

---

protocol_conditions: buffer; pH 7.4; 200.0 µM
# solubility kinetic values compiled below

These solved cases illustrate the format of a correct answer.
compound	solubility kinetic
Cc1ccc(S(=O)(=O)NCc2ccco2)cc1C(N)=O	> 44.1 µg/mL
COC(=O)Cc1c(O)ccn(C2CC2)c1=O	> 33.5 µg/mL
CC1=CC(C)(C)NC(=O)N1c1ccc(C)cc1	> 34.5 µg/mL

## Input Consider the compound CN1CCN(C(=O)c2ccccc2NC(=O)c2ccccc2)CC1 and give its measured solubility kinetic.
## Output > 48.5 µg/mL

## Input And for CC1CCCN(CC(=O)Nc2ccc(S(=O)(=O)N3CCCC3)cc2)C1 (configuration not stated) ?
## Output > 54.8 µg/mL

## Input And for CN1CCN(C(=O)CSc2ccc(Cl)cc2)CC1 ?
## Output > 42.7 µg/mL

## Input And for CC1CC(=O)N(C)c2cc([N+](=O)[O-])ccc2N1 (configuration not stated) ?
## Output > 35.3 µg/mL

---

protocol_conditions: buffer; pH 7.4; 200.0 µM
measurement_type: solubility kinetic

molecule	observed_value
CNS(=O)(=O)c1cccc(C(=O)NCC2CCCCC2)c1	> 0.0466 mg/mL
CC1CN(/C=C/C=O)C(C)CC1OC(=O)c1ccccc1 (stereo unspecified)	> 0.0431 mg/mL

## Input Consider the molecule CC(C)N1CC(C(=O)Nc2cccc([N+](=O)[O-])c2)CC1=O (stereo unspecified) and give its measured solubility kinetic.
## Output > 0.0437 mg/mL

---

# solubility kinetic values compiled below
protocol_conditions: buffer; pH 7.4; 200.0 µM

molecule	observed_value
O/N=C\c1cccn1-c1nccs1	> 29 µg/mL
O=C(c1cc(-c2ccccc2)on1)N1CCCCCC1	39.1 µg/mL

## Input Consider the molecule CCC(NC(=O)C1CCCO1)c1ccccc1 (stereo not drawn) and give its measured solubility kinetic.
## Output > 35 µg/mL

FYI, the data here is from PubChem BioAssay AID1996.
